Hey, just so you know, these numbers are from paper PMC5843698.

test: In vitro binding assay: free test drug recovered after 3 h incubation with and without patiromer in SGF, acetate buffer or SIF; conditions: QSPR input data; test matrix acetate buffer (AB)
Counter-ions that a name gives are not always drawn.
// boundary case: AB equal to 90 maps to NO; strictly smaller maps to YES

# example entries with known answers
1. COc1cc(Cc2cnc(N)nc2N)cc(OC)c1OC: YES
2. CC(=O)S[C@@H]1CC2=CC(=O)CC[C@]2(C)[C@H]2CC[C@@]3(C)[C@@H](CC[C@@]34CCC(=O)O4)[C@H]12: NO
3. CCCCC(=O)N(Cc1ccc(-c2ccccc2-c2nnn[nH]2)cc1)[C@H](C(=O)O)C(C)C: NO
4. COc1ccc(-n2nc(C(N)=O)c3c2C(=O)N(c2ccc(N4CCCCC4=O)cc2)CC3)cc1: NO
5. CC1(C)S[C@@H]2[C@H](NC(=O)[C@H](N)c3ccc(O)cc3)C(=O)N2[C@H]1C(=O)O: NO

AB strictly < 90 for this compound? C[C@@H](NCCCc1cccc(C(F)(F)F)c1)c1cccc2ccccc12 [Cinacalcet HCl] YES

AB strictly < 90 for this compound? CC(C)c1c(C(=O)Nc2ccccc2)c(-c2ccccc2)c(-c2ccc(F)cc2)n1CC[C@@H](O)C[C@@H](O)CC(=O)O NO

AB strictly < 90 for this compound? Cc1cnc(C(=O)NCCc2ccc(S(=O)(=O)NC(=O)NC3CCCCC3)cc2)cn1 [Glipizide] NO

AB strictly < 90 for this compound? NCCCC[C@H](N[C@@H](CCc1ccccc1)C(=O)O)C(=O)N1CCC[C@H]1C(=O)O NO
